Molecular target: ER (Homo sapiens)
Construct: endogenous in cells
Sequence (P03372 1-595): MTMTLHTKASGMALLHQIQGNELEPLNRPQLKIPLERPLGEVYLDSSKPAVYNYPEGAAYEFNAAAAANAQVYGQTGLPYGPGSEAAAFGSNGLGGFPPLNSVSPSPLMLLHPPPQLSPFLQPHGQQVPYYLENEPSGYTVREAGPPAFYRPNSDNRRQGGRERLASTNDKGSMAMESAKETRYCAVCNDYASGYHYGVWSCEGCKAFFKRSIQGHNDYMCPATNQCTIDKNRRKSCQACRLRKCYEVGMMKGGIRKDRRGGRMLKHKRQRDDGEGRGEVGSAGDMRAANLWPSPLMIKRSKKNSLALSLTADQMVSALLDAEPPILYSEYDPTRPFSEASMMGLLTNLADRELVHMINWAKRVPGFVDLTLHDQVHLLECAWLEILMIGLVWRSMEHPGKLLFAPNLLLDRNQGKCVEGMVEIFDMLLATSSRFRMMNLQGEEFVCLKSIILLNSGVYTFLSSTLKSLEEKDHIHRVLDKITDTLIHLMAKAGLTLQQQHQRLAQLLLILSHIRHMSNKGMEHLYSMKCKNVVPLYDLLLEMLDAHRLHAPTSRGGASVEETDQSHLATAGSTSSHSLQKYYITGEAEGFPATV
Assay: ER antagonism (T47D ERE luciferase), T47d-kb-Luc cells
Conditions: read-out: IC50 (ER antagonistm)
Description: The Antiestrogenic Activity of the Exemplary Compounds was Assessed in T47d-kb-Luc Stably Transfected Human Breast Cancer Cell Antagonist activities were measured by the compound's ability to inhibit the activity of estradiol, the natural estrogen. Data were then normalized relative to the activity of the estradiol control and determinations were performed for five concentrations of the samples in quadruplicate in at least three separate experiments.
pIC50: −log10 of the molar value.

molecule: CC/C(=C(/c1ccc(B(O)O)cc1)c1ccc(N2CCC(CNC3CCN(c4ccc5c(c4)C(=O)N(C4CCC(=O)NC4=O)C5=O)CC3)CC2)cc1)c1ccccc1 (stereo not drawn)
pIC50: 7.30 to 8.00
//
molecule: CC/C(=C(/c1ccc(O)cc1)c1ccc(N2CCN(C(=O)N3CCC(N4CCN(c5ccc6c(c5)CN(C5CCC(=O)NC5=O)C6=O)CC4)CC3)CC2)cc1)c1ccccc1 (stereo not drawn)
pIC50: > 8.00
//
molecule: CC/C(=C(\c1ccc(OCCN2CCN(CC3CCN(c4ccc5c(c4)CN([C@@H]4CCC(=O)NC4=O)C5=O)CC3)CC2)cc1)c1ccc(B(O)O)cc1)c1ccccc1
pIC50: > 8.00
//
molecule: CC/C(=C(\c1ccc(OCCN2CCN(C(=O)N3CCN(c4ccc5c(c4)CN(C4CCC(=O)NC4=O)C5=O)CC3)CC2)cc1)c1ccc(B(O)O)cc1)c1ccccc1 (stereo not drawn)
pIC50: > 8.00
//
molecule: CC/C(=C(/c1ccc(OCCN2CCN(C(=O)N3CCC(N4CCN(c5ccc6c(c5)CN(C5CCC(=O)NC5=O)C6=O)CC4)CC3)CC2)cc1)c1ccc(B(O)O)cc1)c1ccccc1 (stereo not drawn)
pIC50: > 8.00
//
molecule: CC/C(=C(/c1ccc(B(O)O)cc1)c1ccc(N2CCN(C(=O)N3CCC(CN4CCN(c5ccc6c(c5)CN(C5CCC(=O)NC5=O)C6=O)CC4)CC3)CC2)cc1)c1ccccc1 (stereo not drawn)
pIC50: > 8.00
//
molecule: CC/C(=C(\c1ccc(B(O)O)cc1)c1ccc(N2CCN(CCCC3CCN(c4ccc5c(c4)C(=O)N(C4CCC(=O)NC4=O)C5=O)CC3)CC2)cc1)c1ccccc1 (stereo not drawn)
pIC50: 7.30 to 8.00
//
molecule: CC/C(=C(\c1ccc(O)cc1)c1ccc(N2CCN(C(=O)N3CCN(c4ccc5c(c4)CN(C4CCC(=O)NC4=O)C5=O)CC3)CC2)cc1)c1ccccc1 (stereo not drawn)
pIC50: > 8.00
//
molecule: CC/C(=C(\c1ccc(B(O)O)cc1)c1ccc(N2CCC(CNC3CCN(c4ccc5c(c4)C(=O)N(C4CCC(=O)NC4=O)C5)CC3)CC2)cc1)c1ccccc1 (stereo not drawn)
pIC50: > 8.00
//
molecule: CC/C(=C(/c1ccc(OCCN2CCC(C3CCN(c4ccc5c(c4)C(=O)N(C4CCC(=O)NC4=O)C5=O)CC3)CC2)cc1)c1ccc(B(O)O)cc1)c1ccccc1 (stereo not drawn)
pIC50: 7.30 to 8.00
//
molecule: CC/C(=C(/c1ccc(O)cc1)c1ccc(OCCN2CCN(C(=O)N3CCN(c4ccc5c(c4)CN(C4CCC(=O)NC4=O)C5=O)CC3)CC2)cc1)c1ccccc1 (stereo not drawn)
pIC50: > 8.00
//
molecule: CC/C(=C(\c1ccc(OCCN2CCN(CCN3CCN(c4ccc5c(c4)C(=O)N(C4CCC(=O)NC4=O)C5=O)CC3)CC2)cc1)c1ccc(B(O)O)cc1)c1ccccc1 (stereo not drawn)
pIC50: 7.30 to 8.00
//
molecule: CC/C(=C(/c1ccc(B(O)O)cc1)c1ccc(N2CCN(C(=O)N3CCN(c4ccc5c(c4)CN([C@H]4CCC(=O)NC4=O)C5=O)CC3)CC2)cc1)c1ccccc1
pIC50: > 8.00
//
molecule: CC/C(=C(/c1ccc(OCCN2CCC(CN3CCN(c4ccc5c(c4)CN([C@H]4CCC(=O)NC4=O)C5=O)CC3)CC2)cc1)c1ccc(B(O)O)cc1)c1ccccc1
pIC50: > 8.00
//
molecule: CC/C(=C(\c1ccc(OCCCCCN2CCN(c3ccc4c(c3)CN(C3CCC(=O)NC3=O)C4=O)CC2)cc1)c1ccc(B(O)O)cc1)c1ccccc1 (stereo not drawn)
pIC50: 7.30 to 8.00
//
molecule: CC/C(=C(\c1ccc(B(O)O)cc1)c1ccc(N2CCC(CN3CCN(c4ccc5c(c4)C(=O)N(C4CCC(=O)NC4=O)C5=O)CC3)CC2)cc1)c1ccccc1 (stereo not drawn)
pIC50: 7.30 to 8.00
//
molecule: CC/C(=C(\c1ccc(OCCN2CCN(CCCN3CCN(c4ccc5c(c4)C(=O)N(C4CCC(=O)NC4=O)C5=O)CC3)CC2)cc1)c1ccc(B(O)O)cc1)c1ccccc1 (stereo not drawn)
pIC50: 7.30 to 8.00
//
molecule: CC/C(=C(/c1ccc(OCCN2CCN(CCCN3CCN(c4ccc5c(c4)C(=O)N(C4CCC(=O)NC4=O)C5=O)CC3)CC2)cc1)c1ccc(B(O)O)cc1)c1ccccc1 (stereo not drawn)
pIC50: 7.30 to 8.00
//
molecule: CC/C(=C(\c1ccc(B(O)O)cc1)c1ccc(N2CCC(CN3CCN(c4ccc5c(c4)CN(C4CCC(=O)NC4=O)C5=O)CC3)CC2)cc1)c1ccccc1 (stereo not drawn)
pIC50: 7.30 to 8.00
//
molecule: CC/C(=C(/c1ccc(OCCN2CCC(N3CCN(c4ccc5c(c4)C(=O)N(C4CCC(=O)NC4=O)C5=O)CC3)CC2)cc1)c1ccc(B(O)O)cc1)c1ccccc1 (stereo not drawn)
pIC50: < 7.30
//
molecule: CC/C(=C(\c1ccc(B(O)O)cc1)c1ccc(N2CCN(C(=O)N3CCN(c4ccc5c(c4)CN(C4CCC(=O)NC4=O)C5=O)CC3)CC2)cc1)c1ccccc1 (stereo not drawn)
pIC50: > 8.00
